Data origin, for the record: PubChem BioAssay

Each record here notes measured z-score.
# test-protocol: CREB reporter modulators under forskolin, primary screen, cell-based, PC12, CRE-LacZ reporter, forskolin-stimulated (AID 1146);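 also: PC12 cells with 6xCRE LacZ reporter stimulated by forskolin 10 µM; beta-galactosidase reporter signal reflecting CREB driven transcription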
# experimental-conditions: luminescence, 4.5 h, higher = more signal, called active from +8 up or from −8 down
measure-name: z-score

molecule=O=C1N(Cc2ccccc2)c2ccccc2[C@H]2OC(c3ccc(OCCCO)cc3)=N[C@@]12Cc1ccccc1 test_value=-1.07
molecule=COCCOC(=O)N1C(=O)[C@@]2(c3ccccc31)[C@H](C(=O)N1CCCCCCC1)[C@H]1C(=O)O[C@H](c3ccccc3)[C@H](c3ccccc3)N1[C@@H]2c1ccc(O)cc1 test_value=-1.03
molecule=CN(C)CCCC[C@@H]1NC(=O)[C@@H]2C[C@H](C(=O)NCCCCCCNC(=O)CS)[C@H](c3cccc(OCCO)c3)N2C1=O test_value=-0.995
molecule="C=CCC(OC(C)=O)[C@@H]1[C@@H](N(Cc2cccc3ccccc23)C(=O)c2ccc(C)cc2)c2cc(OCCCO)ccc2N1C(=O)c1ccc2ccccc2n1 (stereo partly specified)" test_value=0.154
molecule=COCCOC(=O)N1C(=O)[C@@]2(c3cc(C#CCCO)ccc31)[C@H](c1ccccc1OCCO)N1[C@H](c3ccccc3)[C@H](c3ccccc3)OC(=O)[C@H]1[C@@H]2C(=O)N1CCc2cc(OC)c(OC)cc2C1 test_value=0.385
molecule=CCOC(=O)C1=CC[C@@H](c2ccc(F)cc2)N(S(=O)(=O)c2ccc(C)cc2)[C@H]1c1ccc([N+](=O)[O-])cc1 test_value=0.66
